Test system: NCI-H196 complex spheroids with HUVEC/MSC, growth % T/C
experiment summary: Anticancer human tumor NCI-H196 cell line growth inhibition [Asc];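 further: spheroids exposed to compound for 7 days before measurement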
settings: curve of first compound; second compound 10 µM
Text: Multicellular complex tumor spheroid response to apoptosis pathway targeting inhibitors Alrizomadlin, Pelcitoclax, and Dasminapant in combination with a variety of drugs and investigational agents in selected tumor cell lines […] Compounds. […] If the clinical Cmax for an agent had not been determined, the highest concentration tested was 10 microM. […]
Give IC50 for every item shown.

Param item = NC1CCC(NC2CC2c2ccccc2)CC1 (centres undefined) + Cc1c(S(C)(=O)=O)c(-c2cc(F)cc(N3CCN(c4ccc(NS(=O)(=O)c5ccc(NC(CCN6CCC(C(=O)OCCCP(=O)(O)O)CC6)CSc6ccccc6)c(S(=O)(=O)C(F)(F)F)c5)cc4)CC3)c2)c(-c2ccc(Cl)cc2)n1C(C)C ; retrieve measured IC50.
> 0.1 µM

And C#Cc1c(F)ccc2cc(O)cc(-c3ncc4c(N5CC6CCC(C5)N6)nc(OCC56CCCN5CC(F)C6)nc4c3F)c12 (centres undefined) + Cc1c(S(C)(=O)=O)c(-c2cc(F)cc(N3CCN(c4ccc(NS(=O)(=O)c5ccc(NC(CCN6CCC(C(=O)OCCCP(=O)(O)O)CC6)CSc6ccccc6)c(S(=O)(=O)C(F)(F)F)c5)cc4)CC3)c2)c(-c2ccc(Cl)cc2)n1C(C)C ?
> 10 µM

And O=C(c1cc(Cc2n[nH]c(=O)c3ccccc23)ccc1F)N1CCN(C(=O)C2CC2)CC1 + Cc1c(S(C)(=O)=O)c(-c2cc(F)cc(N3CCN(c4ccc(NS(=O)(=O)c5ccc(NC(CCN6CCC(C(=O)OCCCP(=O)(O)O)CC6)CSc6ccccc6)c(S(=O)(=O)C(F)(F)F)c5)cc4)CC3)c2)c(-c2ccc(Cl)cc2)n1C(C)C ?
> 10 µM

And Cn1ncnc1[C@H]1c2n[nH]c(=O)c3cc(F)cc(c23)N[C@@H]1c1ccc(F)cc1 + Cc1c(S(C)(=O)=O)c(-c2cc(F)cc(N3CCN(c4ccc(NS(=O)(=O)c5ccc(NC(CCN6CCC(C(=O)OCCCP(=O)(O)O)CC6)CSc6ccccc6)c(S(=O)(=O)C(F)(F)F)c5)cc4)CC3)c2)c(-c2ccc(Cl)cc2)n1C(C)C ?
> 0.1 µM

###

Tested on: NCI-H196 complex spheroids with HUVEC/MSC, growth % T/C
experiment summary: Anticancer human tumor NCI-H196 cell line growth inhibition [Asc];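 further: spheroids exposed to compound for 7 days before measurement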
settings: curve of first compound; second compound 3.16 µM
Give IC50 for every item shown.

Param item = O=C(c1ccc(F)c(F)c1Nc1ccc(I)cc1F)N1CC(O)([C@@H]2CCCCN2)C1 + Cc1c(S(C)(=O)=O)c(-c2cc(F)cc(N3CCN(c4ccc(NS(=O)(=O)c5ccc(NC(CCN6CCC(C(=O)OCCCP(=O)(O)O)CC6)CSc6ccccc6)c(S(=O)(=O)C(F)(F)F)c5)cc4)CC3)c2)c(-c2ccc(Cl)cc2)n1C(C)C ; retrieve measured IC50.
> 1000 nM

And CNC(C)C(=O)NC1CN(S(=O)(=O)c2cccc(S(=O)(=O)N3CCC4CCC(C(=O)NC(c5ccccc5)c5ccccc5)N4C(=O)C(NC(=O)C(C)NC)C3)c2)CCC2CCC(C(=O)NC(c3ccccc3)c3ccccc3)N2C1=O (stereo not drawn) + Cc1c(S(C)(=O)=O)c(-c2cc(F)cc(N3CCN(c4ccc(NS(=O)(=O)c5ccc(NC(CCN6CCC(C(=O)OCCCP(=O)(O)O)CC6)CSc6ccccc6)c(S(=O)(=O)C(F)(F)F)c5)cc4)CC3)c2)c(-c2ccc(Cl)cc2)n1C(C)C ?
< 3.16 nM

And C=CC(=O)N1CCN(c2nc(=O)n(-c3c(C)ccnc3C(C)C)c3nc(-c4c(O)cccc4F)c(F)cc23)C(C)C1 (stereo not drawn) + Cc1c(S(C)(=O)=O)c(-c2cc(F)cc(N3CCN(c4ccc(NS(=O)(=O)c5ccc(NC(CCN6CCC(C(=O)OCCCP(=O)(O)O)CC6)CSc6ccccc6)c(S(=O)(=O)C(F)(F)F)c5)cc4)CC3)c2)c(-c2ccc(Cl)cc2)n1C(C)C ?
> 10000 nM
